# experiment: solvent given as SMILES
# measurement-context: in CCCCCC
# emission maximum per record follows
reported-property: emission maximum (nm)

molecule | reported-property | measurement-units | test-result
c1ccc(-c2nc3ccccc3nc2-c2ccccc2)cc1 | emission maximum | nm | 396
Nc1ccc2c(C(F)(F)F)cc(=O)oc2c1 | emission maximum | nm | 401
CCC1=C(C)C2=Cc3c4ccccc4c4n3[B-](c3ccncc3)(Oc3ccccc3-4)[N+]2=C1C (stereo unspecified) | emission maximum | nm | 636
COc1ccc(N(c2ccc(OC)cc2)c2ccc3ccc4c(B(c5c(C)cc(C)cc5C)c5c(C)cc(C)cc5C)ccc5ccc2c3c54)cc1 | emission maximum | nm | 534
C1=C(c2ccc(-c3cccs3)s2)CCCC1 | emission maximum | nm | 411
O=C1c2cccc3c(-n4c5ccccc5c5ccccc54)ccc(c23)C(=O)N1C1CCCCC1 | emission maximum | nm | 441
